Here is a set of compounds with reported Ki for Carbonic anhydrase 1 (Homo sapiens, UniProt P00915), compiled from the literature.

As a guide, the following entries are already answered.
Quote Ki with test system Carbonic anhydrase 1 (Homo sapiens, UniProt P00915) for "CC1(C)CC(=O)c2cnc(Nc3ccc(S(=O)(=O)Nc4ccccc4)cc3)nc2C1"
70.5 µM

Report its Ki with Carbonic anhydrase 1 (Homo sapiens, UniProt P00915) as the test system: "O=C(NC(=S)N1CCCC1)c1cc2ccccc2oc1=O"
> 10 µM

State measured Ki of the compound "Cc1cn([C@H]2C[C@H](n3cc(CN(Cc4cn([C@H]5C[C@H](n6cc(C)c(=O)[nH]c6=O)O[C@@H]5CO)nn4)c4ccc(S(N)(=O)=O)cc4)nn3)[C@@H](CO)O2)c(=O)[nH]c1=O" with Carbonic anhydrase 1 (Homo sapiens, UniProt P00915).
> 10 µM

Now consider a different compound.
Would you please give the reported Ki of "O=C(NC(=S)NC1CCCCC1)c1cc2ccccc2oc1=O" with Carbonic anhydrase 1 (Homo sapiens, UniProt P00915)?
> 10 µM
